Just for reference, ChEMBL document CHEMBL1157178 is where these values come from.

pIC50 values, listed per item
Test system: SW-620
protocol.text: Antiproliferative activity against human SW620 cells after 72 hrs by MTT test
Type: functional, cell-based
condition.notes: SW-620, 72 h
pIC50: −log10 of the molar value.
metric.name: pIC50

structure_as_smiles=NC(=S)N/N=C/c1ccccc1O target_entity=SW-620 metric_name=pIC50 qualifier_operator=< obs_value=5.30
structure_as_smiles=CCN(CC)c1ccc(/C=N/NC(N)=S)c(O)c1 target_entity=SW-620 metric_name=pIC50 qualifier_operator== obs_value=5.52
structure_as_smiles=NC(=S)N/N=C/c1c(O)ccc2ccccc12 target_entity=SW-620 metric_name=pIC50 qualifier_operator== obs_value=5.33
structure_as_smiles=Oc1ccccc1/C=N/NC(=S)Nc1ccccc1 target_entity=SW-620 metric_name=pIC50 qualifier_operator== obs_value=5.70
structure_as_smiles=COc1cccc(/C=N/NC(=S)Nc2ccccc2)c1O target_entity=SW-620 metric_name=pIC50 qualifier_operator== obs_value=5.80
structure_as_smiles=CCN(CC)c1ccc(/C=N/NC(=S)Nc2ccccc2)c(O)c1 target_entity=SW-620 metric_name=pIC50 qualifier_operator== obs_value=6.22
